# System: SARS-CoV-2
# ASSAY TEXT: Antiviral activity against SARS-CoV-2 in BEC-hACE2 cells (RT-qPCR)
# PARTICULARS: read-out: Anti-SARS-CoV2, IC50; subconfluent BEC-hACE2, drug after viral absorption, 24 hpi; listed as ISOEMT
RESULT TYPE: IC50 (µM)
Please respond with the number in µM and leave the unit unwritten.

Incoming: Return IC50 measured with SARS-CoV-2 given this molecule: `CC[C@H]1CN2CCc3cc(OC)c(OC)cc3[C@@H]2C[C@@H]1C[C@@H]1NCCc2cc(OC)c(OC)cc21.Cl.Cl`
Outgoing: 16.5

* * *

# ASSAY TEXT: MTS assay, growth inhibition and toxicity in non-infected BEC-hACE2 cells
# Type: cell-based, human
# PARTICULARS: human, sub-confluent non-infected BEC-hACE2 cells; sub-confluent BEC-hACE2, 24 h; read-out: MTS, CC50 (50 % effect)
RESULT TYPE: CC50 at 24 h (µM)
Reply numerically in µM, unit not repeated.

Incoming: State the recorded CC50 at 24 h for this entry: CC[C@H]1CN2CCc3cc(OC)c(OC)cc3[C@@H]2C[C@@H]1C[C@H]1NCCc2cc(OC)c(OC)cc21 [Emetine, reference compound]
Outgoing: 100

* * *

# TESTED SYSTEM: l-type calcium current ICaL (Cavia porcellus, UniProt O35505)
# Sequence (O35505 whole entry): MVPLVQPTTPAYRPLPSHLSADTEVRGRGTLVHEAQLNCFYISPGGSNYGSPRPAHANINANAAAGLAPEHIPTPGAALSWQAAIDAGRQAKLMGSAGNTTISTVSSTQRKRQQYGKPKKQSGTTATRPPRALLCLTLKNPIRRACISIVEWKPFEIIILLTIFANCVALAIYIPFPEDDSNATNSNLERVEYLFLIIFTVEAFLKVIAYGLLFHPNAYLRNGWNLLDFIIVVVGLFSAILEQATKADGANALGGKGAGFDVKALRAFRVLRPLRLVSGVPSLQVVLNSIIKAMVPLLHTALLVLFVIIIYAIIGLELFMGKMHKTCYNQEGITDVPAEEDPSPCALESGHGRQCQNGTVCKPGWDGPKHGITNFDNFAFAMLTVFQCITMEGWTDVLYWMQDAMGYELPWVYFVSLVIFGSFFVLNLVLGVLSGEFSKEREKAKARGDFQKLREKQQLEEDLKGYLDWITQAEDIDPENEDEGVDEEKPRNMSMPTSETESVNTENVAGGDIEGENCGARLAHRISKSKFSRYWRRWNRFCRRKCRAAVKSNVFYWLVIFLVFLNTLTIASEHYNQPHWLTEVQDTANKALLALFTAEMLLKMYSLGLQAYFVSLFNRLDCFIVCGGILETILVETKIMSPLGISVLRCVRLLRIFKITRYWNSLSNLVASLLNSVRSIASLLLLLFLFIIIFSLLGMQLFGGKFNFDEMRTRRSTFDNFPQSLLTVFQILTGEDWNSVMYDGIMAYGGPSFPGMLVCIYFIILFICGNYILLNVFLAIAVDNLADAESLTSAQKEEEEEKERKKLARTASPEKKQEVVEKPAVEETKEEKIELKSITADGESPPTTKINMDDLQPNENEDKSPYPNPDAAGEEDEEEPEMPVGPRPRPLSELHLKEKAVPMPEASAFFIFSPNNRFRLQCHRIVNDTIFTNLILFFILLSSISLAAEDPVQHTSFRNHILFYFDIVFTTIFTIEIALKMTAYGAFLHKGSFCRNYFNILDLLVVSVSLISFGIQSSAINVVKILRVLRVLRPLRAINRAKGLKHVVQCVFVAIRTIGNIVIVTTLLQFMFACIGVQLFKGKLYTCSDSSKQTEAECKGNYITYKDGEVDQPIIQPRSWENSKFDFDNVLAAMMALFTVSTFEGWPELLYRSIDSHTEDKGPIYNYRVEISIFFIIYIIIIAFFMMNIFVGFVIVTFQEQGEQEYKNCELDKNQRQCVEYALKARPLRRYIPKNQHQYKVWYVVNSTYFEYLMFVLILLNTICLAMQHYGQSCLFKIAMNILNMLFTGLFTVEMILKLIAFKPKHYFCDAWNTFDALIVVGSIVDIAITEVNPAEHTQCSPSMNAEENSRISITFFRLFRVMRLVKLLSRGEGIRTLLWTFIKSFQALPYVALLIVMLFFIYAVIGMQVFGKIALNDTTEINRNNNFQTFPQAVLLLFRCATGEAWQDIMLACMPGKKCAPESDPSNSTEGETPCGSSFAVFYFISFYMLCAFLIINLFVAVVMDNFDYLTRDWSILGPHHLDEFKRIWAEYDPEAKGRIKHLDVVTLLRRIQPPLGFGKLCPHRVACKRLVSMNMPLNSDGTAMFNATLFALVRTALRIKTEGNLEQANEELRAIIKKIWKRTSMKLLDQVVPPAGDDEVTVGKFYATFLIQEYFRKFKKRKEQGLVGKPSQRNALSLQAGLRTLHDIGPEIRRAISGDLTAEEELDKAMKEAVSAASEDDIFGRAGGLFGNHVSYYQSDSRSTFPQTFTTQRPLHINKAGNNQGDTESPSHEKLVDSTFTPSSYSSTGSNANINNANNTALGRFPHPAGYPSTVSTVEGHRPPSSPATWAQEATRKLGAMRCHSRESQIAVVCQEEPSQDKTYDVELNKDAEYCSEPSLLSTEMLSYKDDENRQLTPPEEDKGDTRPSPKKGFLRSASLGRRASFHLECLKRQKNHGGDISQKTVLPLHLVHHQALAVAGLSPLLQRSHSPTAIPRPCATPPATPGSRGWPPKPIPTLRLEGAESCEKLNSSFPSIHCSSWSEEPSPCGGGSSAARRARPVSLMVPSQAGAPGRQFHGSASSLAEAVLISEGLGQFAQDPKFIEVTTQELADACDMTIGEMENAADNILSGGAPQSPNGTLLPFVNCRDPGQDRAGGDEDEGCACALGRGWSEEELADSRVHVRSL
# ASSAY TEXT: Patch clamp recording of ICaL in guinea pig ventricular myocytes
# PARTICULARS: guinea pig ventricular myocytes, Langmuir isotherm, 5-60 μM; read-out: KD for inhibition of ICaL
Measured pKd by item
Please keep in mind that pKd is minus log10 of the molar concentration; only the number is needed.

These recorded examples may help you get a feel for the data.
INSERT INTO results (molecule, quantitative_readout) VALUES
  ('CC[C@H]1CN2CCc3cc(OC)c(OC)cc3[C@@H]2C[C@@H]1C[C@H]1NCCc2cc(OC)c(OC)cc21 [Emetine, reference compound]', 4.24),
  ('CCC1=C(C[C@H]2NCCc3cc(OC)c(OC)cc32)C[C@H]2c3cc(OC)c(OC)cc3CCN2C1', 4.27);

Now look at this entry.
Incoming: Returns the measured pKd for the input molecule. Input: `CC[C@H]1CN2CCc3cc(OC)c(OC)cc3[C@@H]2C[C@@H]1C[C@@H]1NCCc2cc(OC)c(OC)cc21.Cl.Cl`
Outgoing: 4.38

* * *

# Tested on: BEC-hACE2 cells
# ASSAY TEXT: MTS assay, growth inhibition and toxicity in non-infected BEC-hACE2 cells
# Format: cell-based, human
# PARTICULARS: sub-confluent BEC-hACE2, 24 h; read-out: MTS, CC50 (50 % effect)
RESULT TYPE: CC50

Incoming: // lookup CC50 for CC[C@H]1CN2CCc3cc(OC)c(OC)cc3[C@@H]2C[C@@H]1C[C@@H]1NCCc2cc(OC)c(OC)cc21.Cl.Cl [Isoemetine]
Outgoing: 100 µM

* * *

# Tested on: SARS-CoV-2
# ASSAY TEXT: Antiviral activity against SARS-CoV-2 in BEC-hACE2 cells (RT-qPCR)
# PARTICULARS: Severe acute respiratory syndrome coronavirus 2, read-out: Anti-SARS-CoV2, IC50, subconfluent BEC-hACE2, drug after viral absorption, 24 hpi
Examples of compounds with documented pIC50 follow.
pIC50 is defined as minus the log10 of a concentration measured in mol/L.

INSERT INTO results (compound, tested_system, quantitative_readout) VALUES
  ('CC[C@H]1CN2CCc3cc(OC)c(OC)cc3[C@@H]2C[C@@H]1C[C@H]1NCCc2cc(OC)c(OC)cc21 [Emetine, reference compound]', 'SARS-CoV-2', 7.28);

--- query ---
Incoming: Param readout= pIC50; system= SARS-CoV-2; entry= `CCC1=C(C[C@H]2NCCc3cc(OC)c(OC)cc32)C[C@H]2c3cc(OC)c(OC)cc3CCN2C1` ; returns value.
Outgoing: 7.06

Source: paper PMC10831786
